B1: PhoQ; a variant is named by its letters at X, in order, P23837 (parent)
chain: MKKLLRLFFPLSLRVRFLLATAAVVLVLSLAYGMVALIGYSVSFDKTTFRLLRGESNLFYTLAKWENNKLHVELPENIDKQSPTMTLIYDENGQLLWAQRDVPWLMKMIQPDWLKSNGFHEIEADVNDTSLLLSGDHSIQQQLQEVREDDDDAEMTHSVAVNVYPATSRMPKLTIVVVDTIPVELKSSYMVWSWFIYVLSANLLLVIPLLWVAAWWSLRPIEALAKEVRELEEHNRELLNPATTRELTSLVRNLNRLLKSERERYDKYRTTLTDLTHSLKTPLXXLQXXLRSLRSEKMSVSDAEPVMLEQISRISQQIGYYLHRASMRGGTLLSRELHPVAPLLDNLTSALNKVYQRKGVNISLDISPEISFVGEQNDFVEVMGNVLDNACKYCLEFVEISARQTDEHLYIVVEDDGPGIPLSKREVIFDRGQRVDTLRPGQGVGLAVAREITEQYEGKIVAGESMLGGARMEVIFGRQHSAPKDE

variants of: B1; test: enrichment ratio after two sorts for PhoP signalling (ratio (wild type AVST 3.29)); higher = more functional; conditions: with PhoP (E. coli)
In all, about 140,000 sequences were measured (“enrichment ratio after two sorts for PhoP signalling”: median about 0, highest 2% from about 11 on). This is one part of a sample in which the highest values are shown more often than they occur.

| Changes | enrichment ratio |
| --- | --- |
| AHNM | 5.49 |
| AICQ | 3.77 |
| GSWI | ≤ 0.25 |
| VNQQ | ≤ 0.25 |
| IRSG | ≤ 0.25 |
| LMWD | ≤ 0.25 |
| FQKN | ≤ 0.25 |
| KSCF | ≤ 0.25 |
| GSLY | 7.32 |
| YYNE | ≤ 0.25 |
| GSHF | ≤ 0.25 |
| GNSH | 1.23 |
| WMFM | ≤ 0.25 |
| WQNE | ≤ 0.25 |
| FDWQ | ≤ 0.25 |
| LAFQ | 2.23 |
| EIFG | ≤ 0.25 |
| ATVR | 4.36 |
| ATGH | 5.03 |
| KNQF | ≤ 0.25 |
| GSCF | 11.5 |
| FTGV | ≤ 0.25 |
